Origin of measurements: ChEMBL document CHEMBL1201862

# System: SNB-19
# experiment: NCI tumour cell line growth inhibition, 48 h
The source made the active and inactive calls. Cut-off read from the data, not from the text of the source: active = GI50 up to about 1.1 µM and inactive = higher.
Outcomes: active, inactive

O=C1C(Cl)=C(NCCF)C(=O)c2ncccc21 = inactive
CCN(CC)CCOC(c1ccccc1)c1ccccc1.CCOC(=O)Nc1ccc(S(=O)(=O)NCCCl)cc1.CCOC(=O)Nc1ccc(S(=O)(=O)NCCCl)cc1.Nc1ccc(C(=O)O)c(O)c1 = inactive
Cc1c(C)c2c(c(N)c1C#N)C(=O)N(O)C2=O = inactive
COc1c2c(cc3c1-c1c(cc4c(c1OC)OCO4)C1OC3C(C)C1C)OCO2.COc1cc2c(c(OC)c1OC)-c1c(cc3c(c1OC)OCO3)C1OC2C(C)C1C (stereo not drawn) = inactive
N#Cc1sc2c(c1OC(=O)c1ccccc1)c(=O)n(-c1ccccc1)c(=S)n2-c1ccccc1 = inactive
COc1ccc(/N=C2\C(=O)C3=C(OC(C)(C)CC3)c3ccccc32)cc1 = active
CC1C/C(=C\c2ccc(OC(=O)C(C)(C)C)cc2)C(=O)/C(=C/c2ccc(OC(=O)C(C)(C)C)cc2)C1 (stereo not drawn) = inactive
O=c1[nH]/c(=C/c2ccc(OCc3ccccc3)cn2)c(=O)[nH]/c1=C/c1ccc(Cl)cc1 = inactive
Cc1cccc2c(=O)c3cccc([C@@H](C)C(=O)O)c3oc12 = inactive
C=CCNC(=O)NC1=CSC2=NC(=O)C3(NN12)c1ccccc1-c1ccccc13 = inactive
O=C(N/C(=C\c1cccc([N+](=O)[O-])c1)c1nc2c3c(ccc2[nH]1)C(=O)c1ccccc1C3=O)c1ccccc1 = inactive
O=C1NC(SSC2=NNC3(C(=O)N2)c2ccccc2-c2ccccc23)=NNC12c1ccccc1-c1ccccc12 = inactive
C=C1CC2C(=O)N(c3ccccc3)C(=O)C2CC1n1[nH]c(=O)n(Cc2ccccc2)c1=O (stereo not drawn) = inactive
CC(/C=C/C(=O)NO)=C\C(C)C(=O)c1ccc(N(C)C)cc1 (stereo not drawn) = active
Cc1cccc(/N=C/c2ccc(N(CCC#N)S(=O)(=O)c3ccccc3)cc2C)c1 = inactive
O=C(/C=C1\N=C(c2ccccc2)N(c2nc3ccc(Sc4ccccc4)cc3[nH]2)C1=O)/C=C/c1ccccc1 = inactive
CC#CC1/C(=C\C(=O)OC)CCCC1O (stereo not drawn) = inactive
CC1(C)OCC(C2OC(OC(=O)c3ccc(C(F)(F)F)cc3)C3OC(C)(C)OC23)O1 (stereo not drawn) = inactive
